# mean nematode size ln(EXT) (ln) values compiled below
- Tested on: Caenorhabditis elegans N2
- Experimental Details: mean nematode size ln(EXT) after 48 h, plate-adjusted (DMSO control set to 6) (ln(EXT), control-adjusted); higher = larger nematodes / less growth inhibition
- Recorded Conditions: 1 µM; exposure time 48 h
Counter-ions that a name gives are not always drawn.

# Compound, Test System, mean nematode size ln(EXT) (ln)
data = [
    ("COc1ccc(C(c2ccc(OC)cc2)C(Cl)(Cl)Cl)cc1", "Caenorhabditis elegans N2", 5.46),
    ("CC(C)(C)C(=O)C(Oc1ccc(Cl)cc1)n1cncn1 (stereo unspecified)", "Caenorhabditis elegans N2", 5.75),
    ("CC(C)(C)CC(C)(C)c1ccc(O)c(-n2nc3ccccc3n2)c1", "Caenorhabditis elegans N2", 5.58),
    ("Clc1ccc(Cl)c(Cl)c1", "Caenorhabditis elegans N2", 5.79),
    ("N#Cc1c[nH]cc1-c1cccc2c1OC(F)(F)O2", "Caenorhabditis elegans N2", 6.03),
    ("CCOC(=O)C(C)(C)Oc1ccc(Cl)cc1 [Clofibrate]", "Caenorhabditis elegans N2", 5.8),
    ("OCC(O)CO", "Caenorhabditis elegans N2", 5.87),
    ("Nc1nc(=S)c2[nH]cnc2[nH]1", "Caenorhabditis elegans N2", 5.79),
    ("Cc1c(F)c(F)c(COC(=O)[C@@H]2[C@H](/C=C(\\Cl)C(F)(F)F)C2(C)C)c(F)c1F (racemic)", "Caenorhabditis elegans N2", 5.77),
    ("CN(C)CCCN1c2ccccc2Sc2ccc(Cl)cc21 [Chlorpromazine hydrochloride]", "Caenorhabditis elegans N2", 5.87),
    ("CCCCCCCCCCCCCCCO", "Caenorhabditis elegans N2", 5.96),
    ("CCN(C(=O)c1cc(C)cc(OC[C@H](C)Nc2ccncc2)c1)C(C)C", "Caenorhabditis elegans N2", 5.78),
    ("O=C(N[C@@H](Cc1ccccc1)[C@@H](O)C(=O)N1C[C@@H](O)[C@@H](O)C1)c1cc2cc(Cl)ccc2[nH]1", "Caenorhabditis elegans N2", 5.79),
    ("C/C(=N\\C#N)N(C)Cc1ccc(Cl)nc1", "Caenorhabditis elegans N2", 5.98),
    ("CCCCCCCCC(=O)O", "Caenorhabditis elegans N2", 5.94),
    ("CCC(C)c1ccccc1O (stereo unspecified)", "Caenorhabditis elegans N2", 5.85),
    ("Cc1cc(O)ccc1Cl", "Caenorhabditis elegans N2", 5.8),
    ("CC(C)(OO)c1ccccc1 [Cumene hydroperoxide]", "Caenorhabditis elegans N2", 5.91),
    ("CCCN(CCC)c1c([N+](=O)[O-])cc(S(N)(=O)=O)cc1[N+](=O)[O-]", "Caenorhabditis elegans N2", 5.91),
    ("CCOC(=O)C(O)(c1ccc(Cl)cc1)c1ccc(Cl)cc1 [Chlorobenzilate]", "Caenorhabditis elegans N2", 5.97),
    ("CN(C)C(=O)Nc1ccc(Cl)c(Cl)c1", "Caenorhabditis elegans N2", 6.62),
]
